Data origin, for the record: patent US20250268826A1

For each of the compounds below, state its PDI.
assay-method-text: LNP size and polydispersity index (PDI) by dynamic light scattering (DLS)
Assay type: physicochemical
experimental-conditions: Table 1; LNP lipid:DSPC:Cholesterol:DMG-PEG2k 50:10:38.5:1.5 mol %; hEPO mRNA; N:P 6
One number for each entry.

compound: CCCCCCCCCC(=O)OCCN(CCOC(=O)CCCCCCCCC)C(=O)C(N)CO (stereo not shown)
PDI: 0.228
--
compound: CCCCCCCCC(CCCCCC)C(=O)OCCN(CCOC(=O)C(CCCCCC)CCCCCCCC)C(=O)C(C)N (stereo not shown)
PDI: 0.223
--
compound: CCCCCCCCCC(=O)OCCN(CCOC(=O)CCCCCCCCC)C(=O)CN
PDI: 0.441
--
compound: CCCCCCCCC(CCCCCC)C(=O)OCCN(CCOC(=O)C(CCCCCC)CCCCCCCC)C(=O)C(N)Cc1ccccc1 (stereo not shown)
PDI: 0.07

For the 3 compounds below, give their PDI values.
1. CCCCCCCCCCCC(=O)OCCN(CCOC(=O)CCCCCCCCCCC)C(=O)C(C)N (stereo not shown)
2. CCCCCCCCCC(=O)OCCN(CCOC(=O)CCCCCCCCC)C(=O)C(C)N (stereo not shown)
3. CCCCCCCCCC(=O)OCCN(CCOC(=O)CCCCCCCCC)C(=O)C(N)CCCCN (stereo not shown)

// result
0.557
0.069
0.259

###

assay-method-text: Encapsulation efficiency (EE %) by fluorescence based Ribogreen assay
Format: physicochemical
experimental-conditions: Table 5; LNP 50:10:38.5:1.5 mol %; hEPO mRNA; N:P 6
Kindly supply the reported Encapsulation Efficiency % values for the records listed here.
Numbers only, in %.

compound: CCCCCCCCC(CC)C(=O)OCCN(CCOC(=O)C(CC)CCCCCCCC)C(=O)CN (stereo not shown)
Encapsulation Efficiency % / %: 98.4
//
compound: CCCCCCCC(CCCCCCC)C(=O)OCCN(CCOC(=O)C(CCCCCCC)CCCCCCC)C(=O)C(N)Cc1ccccc1 (stereo not shown)
Encapsulation Efficiency % / %: 97.9
//
compound: CCCCCCCCCC(CCCCCCCCC)C(=O)OCCN(CCOC(=O)C(CCCCCCCCC)CCCCCCCCC)C(=O)C(C)N (stereo not shown)
Encapsulation Efficiency % / %: 99.7
//
compound: CCCCCCCCC(CC)C(=O)OCCN(CCOC(=O)C(CC)CCCCCCCC)C(=O)C(N)Cc1ccccc1 (stereo not shown)
Encapsulation Efficiency % / %: 99.1
//
compound: CCCCCCC(CCCC)C(=O)OCCN(CCOC(=O)C(CCCC)CCCCCC)C(=O)C(C)N (stereo not shown)
Encapsulation Efficiency % / %: 99.8
//
compound: CCCCCC(CCCCC)C(=O)OCCN(CCOC(=O)C(CCCCC)CCCCC)C(=O)CN
Encapsulation Efficiency % / %: 99.8

// query Identify measured Encapsulation Efficiency % corresponding to CCCCCCCC(CCCCCCC)C(=O)OCCN(CCOC(=O)C(CCCCCCC)CCCCCCC)C(=O)CN
// result 99.3

###

Please respond with reported Encapsulation Efficiency % for every item in the list.
assay-method-text: Encapsulation efficiency (EE %) by fluorescence based Ribogreen assay
Assay type: physicochemical
experimental-conditions: Table 10; LNP with hEPO mRNA, Lipid:DSPC:Cholesterol:DMG-PEG2k 50:10:38.5:1.5 mol %, N:P ratio 6; Ribogreen assay
One number for each entry, in %.

Solved cases (2 shown):
compound: CCCCCCCCC(CCCCCC)C(=O)OCCN(CCOC(=O)CCCCCCC(C)C)C(=O)CCN(CC)CC (stereo not drawn) [Compound 917d]
output-unit: %
Encapsulation Efficiency %: 60.3

compound: CCCCCCCCC(CCCCCC)C(=O)OCCCCCCN(CCCCO)CCCCCCOC(=O)C(CCCCCC)CCCCCCCC (stereo not drawn) [ALC-0315, reference compound]
output-unit: %
Encapsulation Efficiency %: 83.8

// query Answer with the recorded Encapsulation Efficiency % of CC/C=C\CCCCC(=O)OCCN(CCOC(=O)C(CCCCCC)CCCCCCCC)C(=O)CCN(CC)CC (stereo not drawn) [Compound 917c] only.
// result 84

###

assay-method-text: LNP Zeta potential measured using a Zetasizer (Malvern)
Assay type: physicochemical
experimental-conditions: Table 1; LNP lipid:DSPC:Cholesterol:DMG-PEG2k 50:10:38.5:1.5 mol %; hEPO mRNA; N:P 6
Provide the reported Zeta potential of each item.
One number for each entry, in mV.

molecule: CCCCCCCCC(CCCCCC)C(=O)OCCN(CCOC(=O)C(CCCCCC)CCCCCCCC)C(=O)CN (stereo not drawn) [Compound 105]
Zeta potential (mV): −4.852
--
molecule: CCCCCCCC/C=C\CCCCCCCC(=O)OCCN(CCOC(=O)CCCCCCC/C=C\CCCCCCCC)C(=O)C(C)N (stereo not drawn) [Compound 107]
Zeta potential (mV): 5.484

Okay, now this molecule:
// query Please give the documented Zeta potential of CCCCCCCC/C=C\CCCCCCCC(=O)OCCN(CCOC(=O)CCCCCCC/C=C\CCCCCCCC)C(=O)C(N)Cc1ccccc1 (stereo not drawn) [Compound 113]
// result −2.878

###

Please provide measured Zeta potential for the entries that follow.
assay-method-text: LNP Zeta potential measured using a Zetasizer (Malvern)
Assay type: physicochemical
experimental-conditions: Table 5; LNP 50:10:38.5:1.5 mol %; hEPO mRNA; N:P 6
One number for each entry, in mV.

// solved cases for Zeta potential follow
molecule: CCCCCC(CCCCC)C(=O)OCCN(CCOC(=O)C(CCCCC)CCCCC)C(=O)CN [Compound 601]
output-unit: mV
Zeta potential: −4.878
//
molecule: CCCCCCCCCCCCC(CC)C(=O)OCCN(CCOC(=O)C(CC)CCCCCCCCCCCC)C(=O)C(N)Cc1ccccc1 (stereo not drawn) [Compound 620]
output-unit: mV
Zeta potential: −5.044
//
molecule: CCCCCCCCCCCCC(CC)C(=O)OCCN(CCOC(=O)C(CC)CCCCCCCCCCCC)C(=O)C(C)N (stereo not drawn) [Compound 613]
output-unit: mV
Zeta potential: −6.511
//
molecule: CCCCCC(CCCCC)C(=O)OCCN(CCOC(=O)C(CCCCC)CCCCC)C(=O)C(C)N (stereo not drawn) [Compound 608]
output-unit: mV
Zeta potential: −4.462
//
molecule: CCCCCCCCC(CCCCCC)C(=O)OCCN(CCOC(=O)C(CCCCCC)CCCCCCCC)C(=O)CN (stereo not drawn) [Compound 105]
output-unit: mV
Zeta potential: −5.091

Look at each molecule and report its Zeta potential.
1. CCCCCCCCCCC(CCCC)C(=O)OCCN(CCOC(=O)C(CCCC)CCCCCCCCCC)C(=O)C(N)Cc1ccccc1 (stereo not drawn) [Compound 619]
2. CCCCCCCCCCC(CCCC)C(=O)OCCN(CCOC(=O)C(CCCC)CCCCCCCCCC)C(=O)C(C)N (stereo not drawn) [Compound 612]
3. CCCCCCCCCC(CCCCCCCCC)C(=O)OCCN(CCOC(=O)C(CCCCCCCCC)CCCCCCCCC)C(=O)CN [Compound 607]
4. CCCCCCCC(CCCCCCC)C(=O)OCCN(CCOC(=O)C(CCCCCCC)CCCCCCC)C(=O)CN [Compound 604]

// result
1. −11.63
2. −3.371
3. −12.44
4. −7.347

###

assay-method-text: LNP size and polydispersity index (PDI) by dynamic light scattering (DLS)
Format: physicochemical
experimental-conditions: Table 1; LNP lipid:DSPC:Cholesterol:DMG-PEG2k 50:10:38.5:1.5 mol %; hEPO mRNA; N:P 6
Assign Size to each entry below.
One number for each entry, in nm.

// known answers, use as guide
molecule: CCCCCCCCC(CCCCCC)C(=O)OCCN(CCOC(=O)C(CCCCCC)CCCCCCCC)C(=O)C(N)Cc1ccccc1 (centres unmarked)
endpoint-result: 61.6

molecule: CCCCCCCCCC(=O)OCCN(CCOC(=O)CCCCCCCCC)C(=O)C(N)CCCCN (centres unmarked)
endpoint-result: 71.8

molecule: CCCCCCCCC(CCCCCC)C(=O)OCCN(CCOC(=O)C(CCCCCC)CCCCCCCC)C(=O)C(N)CO (centres unmarked)
endpoint-result: 74.2

Return reported Size values for all items listed beneath this line.
1. CCCCCCCC/C=C\CCCCCCCC(=O)OCCN(CCOC(=O)CCCCCCC/C=C\CCCCCCCC)C(=O)C(N)Cc1ccccc1 (centres unmarked)
2. CCCCCCCCCCCC(=O)OCCN(CCOC(=O)CCCCCCCCCCC)C(=O)C(N)CO (centres unmarked)

// result
1. 79.1
2. 87.1
